Target: PDE1A (Homo sapiens, UniProt P54750)
Construct: purchased Reaction Biology Corporation, Malvern, Pa
Sequence (P54750 whole entry): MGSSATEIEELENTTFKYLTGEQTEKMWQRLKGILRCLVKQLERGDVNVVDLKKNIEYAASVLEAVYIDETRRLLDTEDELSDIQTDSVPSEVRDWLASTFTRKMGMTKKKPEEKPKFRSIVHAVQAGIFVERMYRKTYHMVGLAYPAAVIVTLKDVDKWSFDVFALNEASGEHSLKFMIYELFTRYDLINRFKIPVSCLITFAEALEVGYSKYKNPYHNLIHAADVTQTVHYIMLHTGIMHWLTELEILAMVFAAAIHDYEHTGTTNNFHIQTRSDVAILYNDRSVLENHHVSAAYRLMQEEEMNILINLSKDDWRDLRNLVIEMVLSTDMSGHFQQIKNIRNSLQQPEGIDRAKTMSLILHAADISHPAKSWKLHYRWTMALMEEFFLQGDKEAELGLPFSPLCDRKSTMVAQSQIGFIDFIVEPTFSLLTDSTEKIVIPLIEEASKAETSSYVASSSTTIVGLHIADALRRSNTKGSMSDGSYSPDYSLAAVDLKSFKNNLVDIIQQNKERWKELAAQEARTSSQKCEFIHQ
Assay: Phosphodiesterase enzyme screening assay, PDE1A
Type: biochemical
Settings: Table 1; ratio of IC50 values; value greater than 1 indicates greater selectivity for PDE9A2
Text: Compounds of the invention were screened against PDE1A, PDE1B, PDE2A, PDE3A, PDE3B, PDE4A1A, PDE4B1, PDE4D3, PDE5A1, PDE6C, PDE7A, PDE8A1, PDE9A2, PDE10A2 AND PDE11A isoforms of the phosphodiesterase enzyme to determine activity and overall selectivity through comparative analysis. […] Where 8-methoxy-IBMX and Zaprinast were used as reference inhibitors. […]
quantity-measured: PDE1A selectivity (versus PDE9A2)

molecule	quantity-measured	data-value
Cc1cc(CN2CC(C)C(c3nn4c(C5CCOCC5)ncc4c(=O)[nH]3)C2)n(C)n1 (single isomer, unassigned; (+))	PDE1A selectivity (versus PDE9A2)	487
CC1CN(Cc2ccccc2Cl)CC1c1nn2c(C3CCOCC3)ncc2c(=O)[nH]1 (single isomer, unassigned; (+))	PDE1A selectivity (versus PDE9A2)	92
CC1CN(C)CC1c1nn2c(C3CCOCC3)ncc2c(=O)[nH]1 (single isomer, unassigned; (+))	PDE1A selectivity (versus PDE9A2)	75
CC1CN(Cc2cc(Cl)cc(Cl)c2)CC1c1nn2c(C3CCOCC3)ncc2c(=O)[nH]1 (single isomer, unassigned; (+))	PDE1A selectivity (versus PDE9A2)	93
